tested on: SR leukemia; experiment: NCI tumour cell line growth inhibition, 48 h
Give measured log10 TGI for each item. Keep answers brief.
Parameter value (number): base-10 log of TGI in µM.

Summary for this compound, C=C1C(=O)OC2C3OC(C)(CCC(O)C3COC(C)=O)CC(OC(=O)/C(=C/C)COC(C)=O)C12 (centres undefined) : log10 TGI is -0.15

Summary for this compound, `COc1ccc2c(c1)/C(=N/OC(C)=O)c1c-2cnc2ccccc12` : log10 TGI is 1.58

Summary for this compound, `CN(C)CCCNC(=O)c1cn2c(ccc3sc4ccccc4c(=O)c32)n1` : log10 TGI is 1.48

Summary for this compound, Nc1nc(N)c2c(n1)NC(c1sc(Cl)nc1Cl)CC(c1ccc3c(c1)OCO3)=N2 (centres undefined) : log10 TGI is 1.22

Summary for this compound, CCOC(=O)C1=C(C)N(Cc2ccccc2)C2(O)C=CC(=O)C3=C(O)c4ccccc4C(=O)C312 (centres undefined) : log10 TGI is 1.15

---

Give measured TGI for each item. Keep answers brief.
test system: SN12C renal; test: NCI tumour cell line growth inhibition, 48 h

The measured TGI that `O=c1[nH]nc(-c2ccccc2)n1-n1cnnc1` showed for SN12C renal is > 100 µM

The measured TGI that `C(#Cc1ccccc1)SC1=C(c2ccccc2)S/C(=C(\SC#Cc2ccccc2)c2ccccc2)S1` showed for SN12C renal is > 100 µM

The measured TGI that `Cn1nc(-c2ccccc2)c(C(=O)/C=C/c2ccc(Cl)cc2)c(N2CCCC2)c1=O` showed for SN12C renal is 54 µM

The measured TGI that `CN1CN(C(=O)N2CN(C)C(=O)N(C)C2)CN(C)C1=O` showed for SN12C renal is > 100 µM

The measured TGI that CC(=O)OCC1OC(n2c(-c3ccccc3)c(N=Nc3ccc(C)cc3)c(C)c(C#N)c2=S)C(OC(C)=O)C(OC(C)=O)C1OC(C)=O (configuration not stated) showed for SN12C renal is 28.9 µM

The measured TGI that `Nc1c(C(=O)Nc2cccc3ccccc23)sc2nc3c(cc12)C(=O)CCC3` showed for SN12C renal is > 100 µM

The measured TGI that CCOC(=O)C(C(=O)COC(C)(C)C)[C@@H]1C=C[C@H](OC(C)=O)C1 (some centres not stated) showed for SN12C renal is > 100 µM

The measured TGI that `S=c1c2ccccc2c(=S)n2n1CC=CC2` showed for SN12C renal is > 100 µM

The measured TGI that COC(=O)C(NC(=O)OC(C)(C)C)P(=O)(OC)OC (configuration not stated) showed for SN12C renal is > 100 µM

The measured TGI that `O=C(NOCCO)c1cc(CN2OCCCC2=O)c(F)c(F)c1Nc1ccc(I)cc1F` showed for SN12C renal is > 100 µM

The measured TGI that CCOc1cc2c(cc1O)C(N)C[C@@H]1[C@@H]2CC[C@]2(C)[C@@H](O)CC[C@@H]12 (some centres not stated) showed for SN12C renal is > 100 µM

The measured TGI that `CN=C(N)N/N=C(\C)c1ccc2c(c1)Cc1ccccc1-2` showed for SN12C renal is 5.38 µM

---

tested on: HOP-18 NSCLC; assay: NCI tumour cell line growth inhibition, 48 h
Measurement type: TGI

Summary for this molecule, `N#C/C(=C\c1ccc2[nH]ccc2c1)C(=O)c1ccc(O)c(O)c1` : TGI is > 100 µM

Summary for this molecule, COc1ccc(NC(=O)C2C(=O)N(c3ccc(OC)cc3)C(=O)/C2=N\NC(N)=O)cc1 (stereo not drawn) : TGI is 70.7 µM

Summary for this molecule, COc1cc(C(C#N)NNc2nc(C)cc(=O)[nH]2)cc(OC)c1OC (stereo not drawn) : TGI is > 100 µM

---

system: HCC-2998 colon; assay: NCI tumour cell line growth inhibition, 48 h
Measurement type: TGI

Summary for this compound, `Cc1cc(Nc2nc(-c3ccncc3)nc3ccccc23)n[nH]1` : TGI is > 100 µM

Summary for this compound, `Cc1csc(-n2c(C)nc3cc(Cl)ccc3c2=O)n1` : TGI is > 100 µM

Summary for this compound, `CCCCCCCCCCCCO[P+](=O)OCCCCCCCCCCCC` : TGI is > 100 µM

Summary for this compound, CC(C)[Si](OCC1CC(C#N)OC(C)(C)O1)(C(C)C)C(C)C (stereo unspecified) : TGI is 38.4 µM

Summary for this compound, `CC/C(=C\c1ccc(OC)cc1)c1ccc(OC)cc1` : TGI is > 100 µM

Summary for this compound, `Cn1cc(C2=C(c3cn(CCCCC(=N)N)c4ccccc34)C(=O)NC2=O)c2ccccc21` : TGI is > 25 µM

Summary for this compound, Cc1ccc(/C=C2\N=C(N3CCCC(CO)C3)NC2=O)cc1 (stereo unspecified) : TGI is > 100 µM

Summary for this compound, `O=C(/C=C/C1C(=O)NC(=O)NC1=O)CC(=O)C(=O)Nc1cc(Cl)c(Cl)cc1Cl` : TGI is > 100 µM

Summary for this compound, CC(C)(C)C1=C(Br)C(OC(=O)C(F)(F)F)(C(C)(C)C)OP1(=O)c1ccccc1 (stereo unspecified) : TGI is > 100 µM

Summary for this compound, COCCN1C(=O)C2c3[nH]c4ccccc4c3C3CCC(C(C)(C)C)CC3C2C1=O (stereo unspecified) : TGI is 42.9 µM

Summary for this compound, O=S1(=O)c2ccccc2N=C(c2ccccc2Cl)CC1c1ccc(F)cc1 (stereo unspecified) : TGI is 28.4 µM

---

system: A498 renal; test: NCI tumour cell line growth inhibition, 48 h
Measurement type: TGI

Summary for this compound, `N#Cc1nc(-c2cccc(-c3nc(C#N)c(N)o3)n2)oc1N` : TGI is > 100 µM

Summary for this compound, `CCc1cc(Cc2ccc(C)c(NC(=O)C(=O)C3C(=O)NC(=O)NC3=O)c2CC)cc(C)c1NC(=O)C(=O)C1C(=O)NC(=O)NC1=O` : TGI is > 100 µM

Summary for this compound, O=C1/C(=C\c2ccccc2)C2OCC=C3CN4CCC56c7ccccc7N1C5C2C3CC46 (centres undefined) : TGI is 48 µM

Summary for this compound, `CC(C)=NOC(=O)Nc1cccc2c1OCO2` : TGI is > 100 µM

Summary for this compound, `CCCN1CCC=C(c2ccc(Nc3nc(Nc4ccccc4C(N)=O)c4cc[nH]c4n3)c(C)c2)C1` : TGI is > 25 µM

Summary for this compound, `CCOC(=O)c1cc(Br)c(-c2cc(C)co2)[nH]1` : TGI is > 100 µM

Summary for this compound, CCCCCCCCCCCCCCCC1(OC)C[N+](C)(C)CCO1 (centres undefined) : TGI is 67.5 µM

Summary for this compound, `O=C(/C=C/c1ccccc1)CCC1C(=O)NC(=S)NC1=O` : TGI is > 100 µM

Summary for this compound, CC(=O)NC1C(OCc2ccccc2)OC(CO)C(O)C1OCC(=O)N[C@@H](C)C(=O)N[C@H](CCC(=O)NCCCNc1ccc([N+](=O)[O-])c2[nH]c3ccccc3c(=O)c12)C(N)=O (some centres undefined) : TGI is > 100 µM

Summary for this compound, `CC(=O)[C-](C(C)=O)c1ccccc1.CC(=O)[C-](C(C)=O)c1ccccc1.CC(=O)[C-](C(C)=O)c1ccccc1.[Cl-].[Zr+4]` : TGI is > 100 µM

Summary for this compound, `O=C1C=C(N2CCN(CCOCCO)CC2)C(=O)c2c(O)ccc(O)c21` : TGI is 27.8 µM

Summary for this compound, CC[C@@]1(O)C(=O)OCc2c1cc1n(c2=O)Cc2c-1nc1ccccc1c2/C=N\NC(=O)C(N)Cc1c[nH]c2ccccc12 (some centres undefined) : TGI is 2.76 µM

Summary for this compound, `CC/C(=C\c1ccc(OC)cc1)c1ccc(OC)cc1` : TGI is > 100 µM

Summary for this compound, `COC(=O)c1cc(/C=C\c2cc(OC)ccc2OC)ccc1OC` : TGI is > 100 µM

Summary for this compound, `Cc1cc(Nc2nc(-c3ccncc3)nc3ccccc23)n[nH]1` : TGI is 6.01 µM

Summary for this compound, CSCCCNC(=O)[C@H](CSC)NC(=O)c1csc(CCNC(=O)[C@@H](NSc2ccccc2[N+](=O)[O-])C(C)O)n1 (some centres undefined) : TGI is > 100 µM

Summary for this compound, `O=C(Nc1nc2ccccc2s1)c1cc(-c2ccc(F)cc2)n2nc(-c3ccccc3)cc2n1` : TGI is 5.49 µM

Summary for this compound, O=S1(=O)c2ccccc2N=C(c2ccccc2Cl)CC1c1ccc(F)cc1 (centres undefined) : TGI is 35.7 µM

Summary for this compound, `O=C(Nc1ccc(Cl)cc1)c1cc(S(=O)(=O)Nc2n[nH]c(=O)n2-c2ccccc2)c(S)cc1Cl` : TGI is > 100 µM
